system: Heparin; experiment: Clotting time of activated plasma in the presence of heparin; type: biochemical; parameters: unit not given here; conditions: oligomer 4.4 ug/ml; heparin 1 unit, 0.2 ug/ml
Would you please tag the item Yes when its Clotting time, Trial #1 is 80 or above, and No when it is below?

[Q] Is it the case that CC(C)CCOc1cc(OCCC(C)C)c(C(=O)NNC(=O)c2cc(C(=O)NCCN(C)C)c(OCCCCCN)cc2OCCCCCN)cc1C(=O)NNC(=O)c1cc(C(=O)NCCN(C)C)c(OCCCCCN)cc1OCCCCCN [#19] has Clotting time, Trial #1 reaching or exceeding 80?
[A] No

[Q] Check this compound for Clotting time, Trial #1 at or above 80: CC(C)(C)c1cc2c(OCC(=O)NCCCCCN)c(c1)Cc1cc(C(C)(C)C)cc(c1OCC(=O)NCCCCCN)Cc1cc(C(C)(C)C)cc(c1OCC(=O)NCCCCCN)Cc1cc(C(C)(C)C)cc(c1OCC(=O)NCCCCCN)C2 [#18]
[A] No

[Q] Does COc1ccc(NC(=O)C(CCCNC(=N)N)NC(=O)c2cc(NC(=O)C(CCCNC(=N)N)NC(=O)c3cc(NC(=O)C(CCCNC(=N)N)NC(=O)c4cc(NC(=O)C(CCCNC(=N)N)NC(=O)c5cc(N)ccc5OC)ccc4OC)ccc3OC)ccc2OC)cc1C(=O)NC(CCCNC(=N)N)C(N)=O (stereo not drawn) [#3] have a reported Clotting time, Trial #1 of at least 80?
[A] No

[Q] Evaluate CC(C)CC(NC(=O)c1cc(NC(=O)C(CC(C)C)NC(=O)c2cc(NC(=O)C(CC(C)C)NC(=O)c3cc(NC(=O)C(CC(C)C)NC(=O)c4cc(NC(=O)C(CC(C)C)NC(=O)c5cc(N)ccc5OCCNC(=N)N)ccc4OCCNC(=N)N)ccc3OCCNC(=N)N)ccc2OCCNC(=N)N)ccc1OCCNC(=N)N)C(N)=O (stereo not drawn) [#10] : Clotting time, Trial #1 at minimum 80?
[A] Yes

[Q] Confirm if Clotting time, Trial #1 reported for the compound CC(C)CCOc1ccc(NC(=O)C(CCCNC(=N)N)NC(=O)c2cc(NC(=O)C(CCCNC(=N)N)NC(=O)c3cc(NC(=O)C(CCCNC(=N)N)NC(=O)c4cc(NC(=O)C(CCCNC(=N)N)NC(=O)c5cc(N)ccc5OCCC(C)C)ccc4OCCC(C)C)ccc3OCCC(C)C)ccc2OCCC(C)C)cc1C(=O)NC(CCCNC(=N)N)C(N)=O (stereo not drawn) [#4] is 80 or above.
[A] Yes

----------
test system: Heparin; test: Clotting time of activated plasma in the presence of heparin; format: biochemical; design: unit not given here; conditions: oligomer 4.4 ug/ml; heparin 1 unit, 0.2 ug/ml
readout: Clotting time, Average
// return just the number, without any unit appended

[Q] Which Clotting time, Average reading was recorded for the compound CC(C)CC(N)C(=O)Nc1cc(C(C)(C)C)cc(NC(=O)c2cccc(C(=O)Nc3cc(C(C)(C)C)cc(NC(=O)C(N)CC(C)C)c3SCCN)c2)c1SCCN (centres unmarked) [#13] ?
[A] 92.4

[Q] Requested read-out: Clotting time, Average. Entry: CC(C)CCOc1ccc(NC(=O)C(CCCNC(=N)N)NC(=O)c2cc(NC(=O)C(CCCNC(=N)N)NC(=O)c3cc(NC(=O)C(CCCNC(=N)N)NC(=O)c4cc(NC(=O)C(CCCNC(=N)N)NC(=O)c5cc(N)ccc5OCCC(C)C)ccc4OCCC(C)C)ccc3OCCC(C)C)ccc2OCCC(C)C)cc1C(=O)NC(CCCNC(=N)N)C(N)=O (centres unmarked) [#4]
[A] 169.8

----------
system: low molecular weight heparin (LMWH, Innohep); assay: Clotting time of activated plasma in the presence of LMWH; format: biochemical; settings: oligomer 14.8 ug/ml; LMWH 4.6 ug/ml
readout: Clotting time of activated plasma
Just the number, please.

[Q] May I ask what Clotting time of activated plasma has been recorded for COc1ccc(NC(=O)C(CCCNC(=N)N)NC(=O)c2cc(NC(=O)C(CCCNC(=N)N)NC(=O)c3cc(NC(=O)C(CCCNC(=N)N)NC(=O)c4cc(NC(=O)C(CCCNC(=N)N)NC(=O)c5cc(N)ccc5OC)ccc4OC)ccc3OC)ccc2OC)cc1C(=O)NC(CCCNC(=N)N)C(N)=O (centres unmarked) ?
[A] 109.2

[Q] Any idea what Clotting time of activated plasma was measured for CC(C)CC(NC(=O)c1cc(NC(=O)C(CC(C)C)NC(=O)c2cc(NC(=O)C(CC(C)C)NC(=O)c3cc(NC(=O)C(CC(C)C)NC(=O)c4cc(NC(=O)C(CC(C)C)NC(=O)c5cc(N)ccc5OCCNC(=N)N)ccc4OCCNC(=N)N)ccc3OCCNC(=N)N)ccc2OCCNC(=N)N)ccc1OCCNC(=N)N)C(N)=O (centres unmarked) ?
[A] 97.6

----------
Hi there, I'd appreciate the recorded Clotting time, Average for every entry that follows.
tested on: Heparin; experiment: Clotting time of activated plasma in the presence of heparin; type: biochemical; design: unit not given here; settings: oligomer 4.4 ug/ml; heparin 1 unit, 0.2 ug/ml
// return just the number, without any unit appended

[Q] # query: Clotting time, Average of entry COc1ccc(NC(=O)C(CCCNC(=N)N)NC(=O)c2cc(NC(=O)C(CCCNC(=N)N)NC(=O)c3cc(NC(=O)C(CCCNC(=N)N)NC(=O)c4cc(NC(=O)C(CCCNC(=N)N)NC(=O)c5cc(N)ccc5OC)ccc4OC)ccc3OC)ccc2OC)cc1C(=O)NC(CCCNC(=N)N)C(N)=O (stereo not shown)
[A] 80.3

[Q] Entry under review: CC(C)(C)c1cc2c(OCC(=O)NCCCCCN)c(c1)Cc1cc(C(C)(C)C)cc(c1OCC(=O)NCCCCCN)Cc1cc(C(C)(C)C)cc(c1OCC(=O)NCCCCCN)Cc1cc(C(C)(C)C)cc(c1OCC(=O)NCCCCCN)C2 . Reported Clotting time, Average?
[A] 57.6

[Q] # query: Clotting time, Average of entry CC(C)CCOc1cc(OCCC(C)C)c(C(=O)NNC(=O)c2cc(C(=O)NCCN(C)C)c(OCCCCCN)cc2OCCCCCN)cc1C(=O)NNC(=O)c1cc(C(=O)NCCN(C)C)c(OCCCCCN)cc1OCCCCCN
[A] 27.9

----------
For each record, write down the corresponding Clotting time of activated plasma.
test system: low molecular weight heparin (LMWH, Innohep); test: Clotting time of activated plasma in the presence of LMWH; assay type: biochemical; details: oligomer 14.8 ug/ml; LMWH 4.6 ug/ml
Please reply with the value in numeric form only.

[Q] Please report the recorded Clotting time of activated plasma for CC(C)CC(N)C(=O)Nc1cc(C(C)(C)C)cc(NC(=O)c2cccc(C(=O)Nc3cc(C(C)(C)C)cc(NC(=O)C(N)CC(C)C)c3SCCN)c2)c1SCCN (stereo not shown) .
[A] 189.2

[Q] Item CC(C)CCOc1cc(OCCC(C)C)c(C(=O)NNC(=O)c2cc(C(=O)NCCN(C)C)c(OCCCCCN)cc2OCCCCCN)cc1C(=O)NNC(=O)c1cc(C(=O)NCCN(C)C)c(OCCCCCN)cc1OCCCCCN has what recorded Clotting time of activated plasma?
[A] 34

[Q] Please give the measured Clotting time of activated plasma for this compound: CC(C)(C)c1cc2c(OCC(=O)NCCCCCN)c(c1)Cc1cc(C(C)(C)C)cc(c1OCC(=O)NCCCCCN)Cc1cc(C(C)(C)C)cc(c1OCC(=O)NCCCCCN)Cc1cc(C(C)(C)C)cc(c1OCC(=O)NCCCCCN)C2
[A] 48.6

[Q] If you can, please state the reported Clotting time of activated plasma value of CC(C)CCOc1ccc(NC(=O)C(CCCNC(=N)N)NC(=O)c2cc(NC(=O)C(CCCNC(=N)N)NC(=O)c3cc(NC(=O)C(CCCNC(=N)N)NC(=O)c4cc(NC(=O)C(CCCNC(=N)N)NC(=O)c5cc(N)ccc5OCCC(C)C)ccc4OCCC(C)C)ccc3OCCC(C)C)ccc2OCCC(C)C)cc1C(=O)NC(CCCNC(=N)N)C(N)=O (stereo not shown) .
[A] 44.9
